Target: UniProtKB P11229
Sequence (P11229 1-460): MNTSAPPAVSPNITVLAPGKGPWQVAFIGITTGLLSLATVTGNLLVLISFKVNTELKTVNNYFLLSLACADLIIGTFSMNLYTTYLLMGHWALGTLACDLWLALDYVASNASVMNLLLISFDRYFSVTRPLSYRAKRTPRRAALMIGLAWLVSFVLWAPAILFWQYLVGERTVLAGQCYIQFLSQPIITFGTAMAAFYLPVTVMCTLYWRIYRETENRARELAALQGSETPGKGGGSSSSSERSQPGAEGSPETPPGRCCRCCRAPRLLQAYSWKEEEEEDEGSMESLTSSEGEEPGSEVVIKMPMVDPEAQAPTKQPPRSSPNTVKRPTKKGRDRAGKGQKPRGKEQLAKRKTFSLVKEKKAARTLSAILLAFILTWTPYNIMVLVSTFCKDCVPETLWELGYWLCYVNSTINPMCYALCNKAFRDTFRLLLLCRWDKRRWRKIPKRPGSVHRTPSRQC
Test: mAChR M1 cell-based functional assay: calcium mobilization, positive allosteric modulator mode (increase in EC20 acetylcholine response)
Conditions: Table 2; human M1; read-out: Human M1 Emax (%)
In plain terms, low Emax, meaning strictly below 80%, gives Satisfied, and everything else gives Not satisfied.

[[record]]
compound = "Cn1ncc2nc(C(=O)NCC3CCO3)cc(Cc3ccc(-n4cccn4)cc3)c21 (centres unmarked) [Compound 501]"
target_of_assay = "UniProtKB P11229"
class_label = "Satisfied"

[[record]]
compound = "Cc1csc2c(Cc3ccc(-n4cccn4)cc3)cc(C(=O)N[C@@H]3COCC[C@H]3O)nc12 [Compound 118]"
target_of_assay = "UniProtKB P11229"
class_label = "Not satisfied"

[[record]]
compound = "Cn1ccc(-c2ccc(Cc3cc(C(=O)NCC4CCN4)nc4ccsc34)cn2)n1 (centres unmarked) [Compound 421]"
target_of_assay = "UniProtKB P11229"
class_label = "Satisfied"

[[record]]
compound = "Cc1nc(-c2ccc(Cc3cc(C(=O)NC4CCCCC4)nc4ccsc34)cc2)cs1 [Compound 185]"
target_of_assay = "UniProtKB P11229"
class_label = "Satisfied"

[[record]]
compound = "Cn1cc(-c2ccc(Cc3cc(C(=O)NC4CN(C5COC5)C4)nc4ccsc34)cn2)cn1 [Compound 364]"
target_of_assay = "UniProtKB P11229"
class_label = "Not satisfied"

[[record]]
compound = "Cn1ccc(-c2ccc(Cc3cc(C(=O)NC[C@H]4CCCN4)nc4ccsc34)cn2)n1 [Compound 427]"
target_of_assay = "UniProtKB P11229"
class_label = "Satisfied"

[[record]]
compound = "Cc1csc2c(Cc3ccc(-c4ccn(C)n4)cc3)cc(C(=O)NCC3CCOC3)nc12 (centres unmarked) [Compound 311]"
target_of_assay = "UniProtKB P11229"
class_label = "Satisfied"


====

molecular target: human mAChR M1 (Homo sapiens, UniProt P11229); test: mAChR M1 cell-based functional assay: calcium mobilization, positive allosteric modulator mode (increase in EC20 acetylcholine response); details: Table 2; human M1; read-out: Human M1 Emax (%)
Short version: Emax at least 80% is Met, less is Not met.

[[record]]
compound = "Cn1cc(-c2ccc(Cc3cc(C(=O)N[C@H]4CC[C@@H]4O)nc4ccsc34)cc2)nn1 [Compound 148]"
class_label = "Met"

[[record]]
compound = "Cc1csc2c(Cc3ccc(-n4cccn4)cc3)cc(C(=O)N[C@@H]3CCOC3)nc12 [Compound 316]"
class_label = "Not met"

[[record]]
compound = "Cn1ccc2nc(C(=O)NC3CC4(COC4)C3)cc(Cc3ccc(-c4nccs4)cc3)c21 [Compound 481]"
class_label = "Not met"

[[record]]
compound = "O=C(N[C@@H]1CCCCC[C@H]1O)c1cc(Cc2ccc(-n3cccn3)cc2)c2sccc2n1 [Compound 77]"
class_label = "Met"

[[record]]
compound = "Cc1nc(-c2ccc(Cc3cc(C(=O)N[C@@H]4CCCCC[C@H]4O)nc4ccsc34)cc2)co1 [Compound 170]"
class_label = "Met"

[[record]]
compound = "Cn1ccc(-c2ccc(Cc3cc(C(=O)NCC4CCCCO4)nc4ccsc34)cn2)n1 (stereo not shown) [Compound 359]"
class_label = "Met"

[[record]]
compound = "Cc1csc2c(Cc3ccc(-c4ccn(C)n4)cc3)cc(C(=O)N[C@H]3CCOC[C@@H]3O)nc12 [Compound 313]"
class_label = "Not met"

[[record]]
compound = "CC(C)(C)N1CC(NC(=O)c2cc(Cc3ccc(-c4cscn4)cc3)c3sccc3n2)C1 [Compound 203]"
class_label = "Not met"

[[record]]
compound = "Cc1nc(-c2ccc(Cc3cc(C(=O)N[C@H]4CC[C@@H]4O)nc4ccsc34)cc2)co1 [Compound 146]"
class_label = "Met"

[[record]]
compound = "Cc1ccc(Cc2cc(C(=O)NC3CCOCC3)nc3c(C)csc23)cn1 [Compound 102]"
class_label = "Met"

[[record]]
compound = "Cn1ccc(-c2ccc(Cc3cc(C(=O)NC4CN(C5COC5)C4)nc4ccsc34)cn2)n1 [Compound 425]"
class_label = "Not met"

[[record]]
compound = "Cn1cc(-c2ccc(Cc3cc(C(=O)NC4CCOCC4)nc4ccn(C)c34)cn2)cn1 [Compound 470]"
class_label = "Met"

[[record]]
compound = "Cc1ccc(Cc2cc(C(=O)NC3CC(F)C3)nc3ccsc23)cn1 (stereo not shown) [Compound 259]"
class_label = "Not met"

[[record]]
compound = "Cc1csc2c(Cc3ccc(-c4ccn(C)n4)cc3)cc(C(=O)NC3CCOCC3)nc12 [Compound 302]"
class_label = "Not met"

[[record]]
compound = "O=C(NC1C2CC3C[C@H]1CC(O)(C3)C2)c1cc(Cc2ccc(C(F)(F)F)nc2)c2sccc2n1 (stereo partly shown) [Compound 96]"
class_label = "Not met"

[[record]]
compound = "Cc1nc(-c2ccc(Cc3cc(C(=O)N[C@@H]4CCOC4)nc4ccsc34)cc2)co1 [Compound 160]"
class_label = "Not met"


====

biological target: human mAChR M1 (Homo sapiens); assay: mAChR M1 cell-based functional assay: calcium mobilization, positive allosteric modulator mode (increase in EC20 acetylcholine response); conditions: Table 2; human M1; read-out: Human M1 Emax (%)
Listing: Emax of selected compounds
measurement.name: Emax (%)

[[record]]
compound = "Cc1cc2nc(C(=O)NC3CCOCC3)cc(Cc3ccc(-n4cccn4)cc3)c2s1"
target_of_assay = "human mAChR M1 (Homo sapiens)"
measurement_name = "Emax"
measured_number = 81.5

[[record]]
compound = "Cc1csc2c(Cc3ccc(-n4cccn4)cc3)cc(C(=O)NC3CC4(COC4)C3)nc12"
target_of_assay = "human mAChR M1 (Homo sapiens)"
measurement_name = "Emax"
measured_number = 82.3

[[record]]
compound = "Cc1csc2c(Cc3ccc(-c4ccn(C)n4)cc3)cc(C(=O)NCC3CCO3)nc12 (stereo not shown)"
target_of_assay = "human mAChR M1 (Homo sapiens)"
measurement_name = "Emax"
measured_number = 78.1

[[record]]
compound = "Cn1ncc2nc(C(=O)NCC3CCO3)cc(Cc3ccc(-c4cscn4)cc3)c21 (stereo not shown)"
target_of_assay = "human mAChR M1 (Homo sapiens)"
measurement_name = "Emax"
measured_number = 52.2


====

molecular target: human mAChR M1 (Homo sapiens, UniProt P11229); assay: mAChR M1 cell-based functional assay: calcium mobilization, positive allosteric modulator mode (increase in EC20 acetylcholine response); settings: Table 2; human M1; read-out: Human M1 Emax (%)
# label = Met if Emax >= 70% else Not met

[[record]]
compound = "Cn1cc(-c2ccc(Cc3cc(C(=O)N[C@H]4COCC[C@@H]4O)nc4ccsc34)c(F)c2)cn1"
class_label = "Met"

[[record]]
compound = "Cc1csc2c(Cc3ccc(-n4cccn4)cc3)cc(C(=O)N[C@@H]3CCOC[C@H]3O)nc12"
class_label = "Met"

[[record]]
compound = "Cc1ccc(Cc2cc(C(=O)N[C@@H]3CCCC[C@H]3O)nc3c(C)csc23)cn1"
class_label = "Met"

[[record]]
compound = "Cn1ccc(-c2ccc(Cc3cc(C(=O)NC4CCOC(C)(C)C4)nc4ccn(C)c34)cn2)n1 (centres unmarked)"
class_label = "Met"

[[record]]
compound = "O=C(N[C@H]1CCC[C@@H]1O)c1cc(Cc2ccc(-c3cncs3)cc2)c2sccc2n1"
class_label = "Not met"

[[record]]
compound = "CO[C@H]1CCCC[C@@H]1NC(=O)c1cc(Cc2ccc(-c3csc(C)n3)cc2)c2sccc2n1"
class_label = "Met"

[[record]]
compound = "CC(NC(=O)c1cc(Cc2ccc(-n3cccn3)cc2)c2sccc2n1)C1CCCO1 (centres unmarked)"
class_label = "Met"

[[record]]
compound = "O=C(N[C@@H]1COCC[C@H]1O)c1cc(Cc2ccc(-n3cccn3)cc2)c2sccc2n1"
class_label = "Met"

[[record]]
compound = "CO[C@@H]1CCCC[C@H]1NC(=O)c1cc(Cc2cnc(C)nc2)c2sccc2n1"
class_label = "Not met"

[[record]]
compound = "Cc1nc(-c2ccc(Cc3cc(C(=O)NC4CCOCC4)nc4ccsc34)cc2)co1"
class_label = "Met"

[[record]]
compound = "O=C(NC1COC1)c1cc(Cc2ccc(-c3nccs3)cc2)c2sccc2n1"
class_label = "Not met"

[[record]]
compound = "Cn1cc(-c2ccc(Cc3cc(C(=O)N[C@@H]4CCOC[C@H]4O)nc4ccsc34)cc2)nn1"
class_label = "Not met"

[[record]]
compound = "O=C(NC1CCCOC1)c1cc(Cc2ccc(-c3nccs3)cc2)c2sccc2n1 (centres unmarked)"
class_label = "Met"

[[record]]
compound = "Cc1csc2c(Cc3ccc(-n4cccn4)cc3)cc(C(=O)N[C@@H]3CCC[C@H]3O)nc12"
class_label = "Met"

[[record]]
compound = "O=C(N[C@H]1CCOC1)c1cc(Cc2ccc(-n3cccn3)cc2)c2sccc2n1"
class_label = "Met"

[[record]]
compound = "O=C(NC1CCCNC1=O)c1cc(Cc2ccc(-n3cccn3)cc2)c2sccc2n1 (centres unmarked)"
class_label = "Met"

[[record]]
compound = "Cn1cc(-c2ccc(Cc3cc(C(=O)NCC4CCN4)nc4ccsc34)cn2)cn1 (centres unmarked)"
class_label = "Met"

[[record]]
compound = "Cn1ncc2nc(C(=O)N[C@H]3CCCC[C@@H]3O)cc(Cc3ccc(-n4cccn4)cc3)c21"
class_label = "Not met"

[[record]]
compound = "O=C(NCC1CCOCC1)c1cc(Cc2ccc(-c3nccs3)cc2)c2sccc2n1"
class_label = "Not met"

[[record]]
compound = "Cn1ncc2nc(C(=O)N[C@H]3CCOC[C@@H]3O)cc(Cc3ccc(-c4cscn4)cc3)c21"
class_label = "Not met"

[[record]]
compound = "Cn1cc(-c2ccc(Cc3cc(C(=O)NC4CCOC(C)(C)C4)nc4ccn(C)c34)cn2)cn1 (centres unmarked)"
class_label = "Met"

[[record]]
compound = "Cn1ccc(-c2ccc(Cc3cc(C(=O)NCC4CCOCC4)nc4ccsc34)cn2)n1"
class_label = "Met"

[[record]]
compound = "O=C(NC1CC2(COC2)C1)c1cc(Cc2ccc(-c3cncs3)cc2)c2sccc2n1"
class_label = "Not met"

[[record]]
compound = "Cc1csc2c(Cc3ccc(-c4ccn(C)n4)cc3)cc(C(=O)NC3CC4(COC4)C3)nc12"
class_label = "Met"

[[record]]
compound = "O=C(N[C@H]1COCC[C@@H]1O)c1cc(Cc2ccc(-c3nccs3)cc2)c2sccc2n1"
class_label = "Met"

[[record]]
compound = "CN1CCCC(NC(=O)c2cc(Cc3ccc(-c4cscn4)cc3)c3sccc3n2)C1 (centres unmarked)"
class_label = "Met"

[[record]]
compound = "Cc1csc2c(Cc3ccc(-n4cccn4)cc3)cc(C(=O)NCC3CCCCO3)nc12 (centres unmarked)"
class_label = "Not met"

[[record]]
compound = "O=C(N[C@H]1CCC[C@@H]1O)c1cc(Cc2ccc(-c3nccs3)cc2)c2sccc2n1"
class_label = "Met"

[[record]]
compound = "Cc1ccc(Cc2cc(C(=O)NC3CCCNC3=O)nc3ccsc23)cn1 (centres unmarked)"
class_label = "Met"

[[record]]
compound = "Cc1ncc(Cc2cc(C(=O)N[C@@H]3COCC[C@H]3O)nc3ccsc23)s1"
class_label = "Met"

